Source listed as patent US12304898B2.

target: UniProtKB P35968
Sequence (P35968 790-1356): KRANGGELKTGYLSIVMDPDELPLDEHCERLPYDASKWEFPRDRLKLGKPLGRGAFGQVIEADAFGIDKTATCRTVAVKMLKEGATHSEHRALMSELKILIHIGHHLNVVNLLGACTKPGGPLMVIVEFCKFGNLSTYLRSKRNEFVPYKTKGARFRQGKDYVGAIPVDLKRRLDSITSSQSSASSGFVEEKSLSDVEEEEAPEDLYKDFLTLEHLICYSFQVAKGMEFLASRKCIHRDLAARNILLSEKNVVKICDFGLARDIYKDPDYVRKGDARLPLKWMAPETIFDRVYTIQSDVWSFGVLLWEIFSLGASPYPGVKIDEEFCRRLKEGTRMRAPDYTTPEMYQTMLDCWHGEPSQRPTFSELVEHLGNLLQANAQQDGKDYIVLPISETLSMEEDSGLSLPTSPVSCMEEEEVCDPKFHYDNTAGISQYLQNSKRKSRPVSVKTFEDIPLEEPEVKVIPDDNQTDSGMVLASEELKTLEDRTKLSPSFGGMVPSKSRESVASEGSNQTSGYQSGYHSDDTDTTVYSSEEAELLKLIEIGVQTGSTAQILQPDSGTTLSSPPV
Listed below: pIC50 values for each entry.
Give only the number. pIC50 is defined as minus log10 of concentration in molar units.

Worked cases, pIC50 given:
COc1cc2c(Oc3ccc(NC(=O)C4(C(=O)Nc5ccc(F)cc5)CC4)cc3F)ccnc2cc1OCCCCS : 7.24
COc1cc2c(Oc3ccc(NC(=O)C4(C(=O)Nc5ccc(F)cc5)CC4)cc3F)ccnc2cc1OC/C=C/CCCCS : 7.10
COc1cc2c(Oc3ccc(NC(=O)C4(C(=O)Nc5ccc(F)cc5)CC4)cc3F)ccnc2cc1OCCCCCCNC(=O)CS : 7.29
CC(=O)SCC(=O)NCCCCCOc1cc2nccc(Oc3ccc(NC(=O)NC4CC4)c(Cl)c3)c2cc1C(N)=O : 9.02

Attention now turns to another entry.
Which measured pIC50 belongs to `COc1cc2c(Oc3ccc(NC(=O)C4(C(=O)Nc5ccc(F)cc5)CC4)cc3F)ccnc2cc1OCCCCNC(=O)CS` , tested on UniProtKB P35968?
7.77

* * *

Listed below: Cmax values for each entry.
assay: Pharmacokinetic experiment in rats after intragastric administration; format: in vivo; settings: rat, po, female SD rats, 10 mg/kg, plasma
Give your result in ng/mL as a bare value.

COc1cc2c(Oc3ccc(NC(=O)C4(C(=O)Nc5ccc(F)cc5)CC4)cc3F)ccnc2cc1OCCCCNC(=O)CSC(C)=O : 121
CCCCCCCC(=O)SCC(=O)NCCCCCOc1cc2nccc(Oc3ccc(NC(=O)C4(C(=O)Nc5ccc(F)cc5)CC4)cc3F)c2cc1OC : 852
COc1cc2c(Oc3ccc(NC(=O)C4(C(=O)Nc5ccc(F)cc5)CC4)cc3F)ccnc2cc1OC/C=C/CCCCSC(C)=O : 430

What value of Cmax has been reported for the following molecule? `COc1cc2c(Oc3ccc(NC(=O)C4(C(=O)Nc5ccc(F)cc5)CC4)cc3F)ccnc2cc1OCCCCCNC(=O)CSC(=O)[C@@H](Cc1cn(C)c2ccccc12)NC(C)=O`
289

* * *

assay: Pharmacokinetic experiment in rats after intragastric administration; type: in vivo; settings: rat, po, female SD rats, 10 mg/kg, plasma
Observation Type: Tmax (min)
Give your result in min as a bare value.

Worked cases, Tmax given:
COc1cc2c(Oc3ccc(NC(=O)C4(C(=O)Nc5ccc(F)cc5)CC4)cc3F)ccnc2cc1OCCCCCNC(=O)CSC(C)=O : 19.8
CCCCCCCC(=O)SCC(=O)NCCCCCOc1cc2nccc(Oc3ccc(NC(=O)C4(C(=O)Nc5ccc(F)cc5)CC4)cc3F)c2cc1OC : 20
COc1cc2c(Oc3ccc(NC(=O)C4(C(=O)Nc5ccc(F)cc5)CC4)cc3F)ccnc2cc1OCCCCCNC(=O)CSSC : 25
COc1cc2c(Oc3ccc(NC(=O)C4(C(=O)Nc5ccc(F)cc5)CC4)cc3F)ccnc2cc1OCCCCCCSC(C)=O : 50
COc1cc2c(Oc3ccc(NC(=O)C4(C(=O)Nc5ccc(F)cc5)CC4)cc3F)ccnc2cc1OCCCCCNC(=O)CSC(=O)C(C)(C)C : 50

Attention now turns to another entry.
What value of Tmax has been reported for the following compound? `COc1cc2c(Oc3ccc(NC(=O)C4(C(=O)Nc5ccc(F)cc5)CC4)cc3F)ccnc2cc1OCCCCCCCSC(C)=O`
60

* * *

Listed below: AUC(0-inf) values for each entry.
test: Pharmacokinetic experiment in rats after intragastric administration; type: in vivo; conditions: rat, po, female SD rats, 10 mg/kg, plasma
Quote the value and follow it with the unit of measurement.

Worked cases, AUC(0-inf) given:
CCCCCCCC(=O)SCC(=O)NCCCCCOc1cc2nccc(Oc3ccc(NC(=O)C4(C(=O)Nc5ccc(F)cc5)CC4)cc3F)c2cc1OC : 689 ng·h/mL
COc1cc2c(Oc3ccc(NC(=O)C4(C(=O)Nc5ccc(F)cc5)CC4)cc3F)ccnc2cc1OCCCCNC(=O)CSC(C)=O : 175 ng·h/mL

What value of AUC(0-inf) has been reported for the following compound? `COc1cc2c(Oc3ccc(NC(=O)C4(C(=O)Nc5ccc(F)cc5)CC4)cc3F)ccnc2cc1OCCCCCCSC(C)=O`
468 ng·h/mL

What value of AUC(0-inf) has been reported for the following compound? `COc1cc2c(Oc3ccc(NC(=O)C4(C(=O)Nc5ccc(F)cc5)CC4)cc3F)ccnc2cc1OCCCCCNC(=O)CSC(C)=O`
2790 ng·h/mL

What value of AUC(0-inf) has been reported for the following compound? `COc1cc2c(Oc3ccc(NC(=O)C4(C(=O)Nc5ccc(F)cc5)CC4)cc3F)ccnc2cc1OCCCCCNC(=O)CSSC`
1040 ng·h/mL

What value of AUC(0-inf) has been reported for the following compound? COc1cc2c(Oc3ccc(NC(=O)C4(C(=O)Nc5ccc(F)cc5)CC4)cc3F)ccnc2cc1OCCCCCNC(=O)CSC(=O)[C@H](N)Cc1cn(C)c2ccccc12 [Example 93, benzenesulfonate]
790 ng·h/mL

What value of AUC(0-inf) has been reported for the following compound? `COc1cc2c(Oc3ccc(NC(=O)C4(C(=O)Nc5ccc(F)cc5)CC4)cc3F)ccnc2cc1OCCCCCCCSC(C)=O`
1870 ng·h/mL
